- Test system: HT29 colon
- protocolText: NCI-60 one-dose screen, 48 h
- experimentalContext: 10 µM unless noted
This is part of a sample that, as a whole, favours compounds with a hit. Of some 83,000 tested, about 20% had one in any assay. Active and inactive are the calls of the source. Rule for the calls: active = growth percent below 10; inactive = the rest.
Allowed answers: true (1) = active, false (0) = inactive

What was the test verdict on `COc1cc(F)c(/C=C/c2cc(/C=C/c3cc(OC)c(OC)cc3F)on2)cc1OC` ? false (0)

What was the test verdict on CCN(CC)CCCC(C)Nc1cc(O)cc2cccnc12 (stereo not given) ? false (0)

What was the test verdict on `COc1cc2nc(-c3ccc(C(F)(F)F)cc3)cc(OCCCN3CCCC3)c2cc1OC` ? false (0)

----------
- System: MDA-MB-435 melanoma
- protocolText: NCI-60 one-dose screen, 48 h (100 = growth as untreated, 0 = no growth, -100 = all killed)
- experimentalContext: 10 µM unless noted
This is part of a sample that, as a whole, favours compounds with a hit. Of some 83,000 tested, about 20% had one in any assay.
property: growth (%)
Numbers only, in %.

// worked examples, growth included
O=C(O)c1ccc(NCc2cn(-c3ccc(C(F)(F)F)cc3)nc2-c2ccc(C(=O)O)cc2)cc1 = 102
Oc1ccc(C2c3ccccc3Oc3ccccc32)c2cccnc12 = 27.3
C=C(C)[C@@H]1CC[C@]2(C(=O)N3CCN(C)CC3)CC[C@]3(C)[C@H](CC[C@@H]4[C@@]5(C)CC[C@H](O)C(C)(C)[C@@H]5CC[C@]43C)[C@@H]12 = -82.1
CC(Sc1nc2ccccc2c(=O)n1CCc1ccc(S(N)(=O)=O)cc1)C(=O)Nc1ccc(Cl)cc1 (stereo not drawn) = 98.7
Cc1cc2c(C(=O)NCC#N)cccc2n1-c1nc2c(c(NCc3ccccc3)n1)CCCC2 = -59.8

Below are 7 molecules. Give each one its growth.
1. COc1cc(C2=NN(C(C)=O)C(c3cc(OC)c(OC)c(OC)c3)C2)ccc1O (stereo not drawn)
2. O=Cc1cc2ccccc2nc1Oc1ccc(C(F)(F)F)cc1
3. C=C1C(=O)O[C@H]2[C@H]1CC/C(COC(=O)NCCc1c[nH]c3ccc(OC)cc13)=C\CC[C@@]1(C)O[C@@H]21
4. CC1(C)CC(O)CCCCCCOc2c(CN)cccc2NC(=O)c2nc(cnc2N)-c2ccc(cc2)S1(=O)=O (stereo not drawn)
5. CC(=O)N1c2ccccc2NC2=C(C(=O)NC2(C)C)C1c1ccco1 (stereo not drawn)
6. O=C(O)c1ccc2c(c1)C(=O)N(Cc1ccccc1)C2=O
7. c1ccc2c(-c3c[nH]c4ccccc34)c3c(cc2c1)[nH]c1ccccc13

[-76, 103, 14.7, 20, -19.1, 106, -3.69]

Below are 4 molecules. Give each one its growth.
1. O=S(=O)(NCCNc1nccc(-c2c(-c3cccc(O)c3)nc3occn23)n1)c1cccc(F)c1
2. O=C(CCN1CCCC1)Nc1ccc2c(NCCCc3ccccc3)c3ccccc3nc2c1
3. CC(C)N1C(=O)/C(=C2\SC(=S)N(C(C)C)C2=O)SC1=S
4. CNC(=O)c1cc(Cn2nc(C)c(NC(=O)Nc3ccc(Cl)c(C(F)(F)F)c3)c2C)ccn1

[34.3, -87.8, 100, 100]

Below are 2 molecules. Give each one its growth.
1. c1ccc2cc(Cn3c(-c4cccc5ccccc45)[n+](Cc4ccc5ccccc5c4)c4c5ccccc5c5ccccc5c43)ccc2c1
2. O=C(/C(=C\c1ccc([N+](=O)[O-])cc1)S(=O)Cc1ccc(Cl)cc1)c1ccc(Cl)cc1 (stereo not drawn)

1: -83.7; 2: 82.6

----------
- Tested on: NCI-H226 lung
- protocolText: NCI-60 one-dose screen, 48 h
- experimentalContext: 10 µM unless noted
Compounds without any hit were thinned out: in the full panel of roughly 83,000, 20% have a hit. Activity calls are given as the source filed them. Rule for the calls: active = growth percent below 10; inactive = the rest.
Allowed answers: label 1 (active), label 0 (inactive)

COc1cc2cc(CN3CCN(c4nccc(-c5ccc6ccccc6c5)n4)CC3)c(=O)[nH]c2cc1OC = label 0
O=C(Cc1ccc(/C=C/C(=O)c2nccs2)cc1)Nc1ccccc1 = label 0
COc1cc2nc(-c3ccc(C(F)(F)F)cc3)cc(OCCCN3CCOCC3)c2cc1OC = label 1

What was the test verdict on COc1ccc(C(=O)C2C(C#N)C(C#N)C3c4ccccc4C=CN23)cc1 (centres undefined) ? label 0

What was the test verdict on CC1(C)CC(=O)C2=C(C1)N(c1ccc(F)cc1F)C(N)=C(C#N)C2c1cc(Br)ccc1F (centres undefined) ? label 0

----------
- Test system: UACC-62 melanoma
- protocolText: NCI-60 one-dose screen, 48 h (100 = growth as untreated, 0 = no growth, -100 = all killed)
- experimentalContext: 10 µM unless noted
The panel holds about 83,000 compounds, 20% with a hit somewhere; the sample as a whole holds those more often.
Outcome: 1.0 for growth of at least 40%; 0.0 for anything lower.

CN1CCC(=C(c2ccccc2)c2ccccc2)C(c2ccccc2)C1 (stereo not drawn) = 1.0
CC(=O)c1cc2c(N)c(C(=O)Nc3cccc4ccncc34)sc2nc1C = 1.0
COc1cc(/C=C2\COc3ccc(-c4ccccc4)cc3C2=O)cc(OC)c1 = 1.0
O=C(/C=C(/C=C/c1csc2ccccc12)OB(F)F)/C=C/c1csc2ccccc12 = 0.0
NS(=O)(=O)c1ccc(CCN2C(=O)c3cc(Cl)c(Cl)cc3C2=O)cc1 = 1.0

Reported growth reaches at least 40% for `CCCCN1C=CCN(CCCC)C1` ? 0.0

Reported growth reaches at least 40% for `COc1ccc(-c2nc3sccn3c2/C=C/C(=O)c2ccc3c(c2)OCO3)cc1` ? 1.0

Reported growth reaches at least 40% for `COc1cc2c(c(O)c1Br)C(=O)c1c(O)cc(C[C@H](C)O)cc1[C@H]2[C@H]1c2cc(C[C@H](C)O)cc(O)c2C(=O)c2c1cc(OC)c(Br)c2O` ? 0.0

Reported growth reaches at least 40% for `CN1CCN(c2ccc(NC3=C(Cl)C(=O)c4ncccc4C3=O)cc2C(F)(F)F)CC1` ? 1.0

Reported growth reaches at least 40% for `N#C/C(=C\c1ccccn1)c1nc2cc(Cl)ccc2s1` ? 1.0

Reported growth reaches at least 40% for `COc1cc2nc(-c3ccc(C(F)(F)F)cc3)cc(OCCCN3CCOCC3)c2cc1OC` ? 0.0

Reported growth reaches at least 40% for `CCCCOc1ccc(/C(C)=N/Nc2cc(C)nc3ccc(Br)cc23)cc1` ? 1.0

----------
- System: SN12C renal
- protocolText: NCI-60 one-dose screen, 48 h (100 = growth as untreated, 0 = no growth, -100 = all killed)
- experimentalContext: 10 µM unless noted
The panel holds about 83,000 compounds, 20% with a hit somewhere; the sample as a whole holds those more often.
Measured growth determines class: interval 1 (below 20%), interval 2 (20% to below 90%), interval 3 (90% or more)

The following compounds have reported results that may help.
CC1(C)NCCC[C@]2(C)[C@H]3CC[C@@H]4[C@H]5[C@H](C(=O)/C=C/c6ccco6)CC[C@]5(CO)CC[C@@]4(C)[C@]3(C)CC[C@@H]12 = interval 2
COc1ccc(/C=C2\Oc3cc(OCCCCCN4CCCCC4)ccc3C2=O)cc1OC = interval 2
CCOC(=O)c1nc2c3ccccc3ccn2c1C(=O)OCC = interval 3
COC(=O)c1ccc2c(c1)[n+](=O)c(C(C)=O)c(C(F)(F)F)n2[O-] = interval 1
Cc1cc2cc3ccc(N(C)C)cc3nc2cc1N = interval 1
N=C1C(c2nc3ccccc3s2)=C(O)CN1c1cc(Cl)cc(Cl)c1 = interval 2
Cc1cc2nc3c4ccc(Br)cc4n(CCN(C)C)c3nc2cc1C = interval 1
N#CC1=C(/N=C/c2ccccc2)Oc2c(ccc3ccccc23)C1c1ccc([N+](=O)[O-])cc1 (stereo not given) = interval 3

Now examine the next entry.
Bin? `O=C1Nc2cc(-c3cccc(O)c3)ccc2/C1=C/c1ccc[nH]1` interval 1

----------
- Tested on: SNB-75 CNS
- protocolText: NCI-60 one-dose screen, 48 h (100 = growth as untreated, 0 = no growth, -100 = all killed)
- experimentalContext: 10 µM unless noted
The panel holds about 83,000 compounds, 20% with a hit somewhere; the sample as a whole holds those more often.
Measured growth determines class: class A: < 20%; class B: ≥ 20% and < 90%; class C: ≥ 90%

The following molecules have reported results that may help.
O=S(=O)(NCCNc1nccc(-c2c(-c3cccc(F)c3)nc3sccn23)n1)c1ccccc1 = class B
COc1cc(/C=C/c2cc(O)c(C(C)=O)c(O)c2)cc2c1O[C@]1(C)CC[C@@H](O)C(C)(C)[C@H]1C2 = class A
COc1ccc(N2CCN(c3ccc(NC4=C(Cl)C(=O)c5ncccc5C4=O)cc3)CC2)cc1 = class B
O=C1C=CC(=O)N1c1cccc(Cl)c1 = class C
Cn1cc(-c2csc(-c3c[nH]c4ccccc34)n2)c2ccnc(Cl)c21 = class B
O=C(Nc1ccc(Cl)cc1)c1cc(NCc2cc(O)ccc2O)ccc1O = class C
N#Cc1c(NCc2ccccc2I)sc2c1CCCCC2 = class B
OCc1cnccc1NCCCOc1ccccc1 = class C
CCCCCCNC(=O)Nc1ccc2cc3ccc(NC(=O)NCCCCCC)cc3nc2c1 = class A
CC(=O)N1N=C(c2ccc(-n3ccc(C(F)(F)F)n3)c(F)c2)CC1c1ccc[nH]1 (configuration not stated) = class C

Bin? `O=C(CCN1CCCC1)Nc1ccc2c(NCCc3ccccc3)c3ccccc3nc2c1` class A

Bin? `N#C/C(=C\c1ccc([N+](=O)[O-])s1)c1nc2cc(Br)ccc2s1` class A

Bin? `Cc1cc2cc3ccc(N(C)C)cc3nc2cc1N` class A

Bin? CN(C)c1ccc(C2C(C#N)=C(/N=C/c3ccccc3)Oc3c2ccc2ccccc32)cc1 (configuration not stated) class A

Bin? `N/C(=N\C(N)=N\c1nc2ccccc2s1)c1cccc(Cl)c1` class C

Bin? `O=C1CC(=O)OC(c2ccc([N+](=O)[O-])cc2)O1` class A

Bin? `CCN(Cc1ccccc1)c1ccc(C=O)cc1` class B

Bin? `COc1cc2nc(-c3ccc(Cl)cc3)cc(OCCCN3CCCCC3)c2cc1OC` class A

Bin? `O=C(N/N=C/c1cc2ccccc2n2nnnc12)Nc1ccccc1` class C

Bin? `O=C(/C=C/c1c(-c2ccc(Cl)cc2)nn(-c2ccccc2)c1C(F)(F)F)c1ccc(Cl)cc1` class B

Bin? `Cc1c(C(=O)NCCC(=O)NO)sc2ncnc(Nc3ccc(F)c(Cl)c3)c12` class C
